These entries and their values trace back to paper PMC5889910.

Kindly state % α-helix of HSA for each of the entries shown.
assay_system: human serum albumin (HSA) (Homo sapiens)
Construct: I (residues 1–195), II (196–383), and III (384–585); purchased Sigma
Sequence (P02768 25-609): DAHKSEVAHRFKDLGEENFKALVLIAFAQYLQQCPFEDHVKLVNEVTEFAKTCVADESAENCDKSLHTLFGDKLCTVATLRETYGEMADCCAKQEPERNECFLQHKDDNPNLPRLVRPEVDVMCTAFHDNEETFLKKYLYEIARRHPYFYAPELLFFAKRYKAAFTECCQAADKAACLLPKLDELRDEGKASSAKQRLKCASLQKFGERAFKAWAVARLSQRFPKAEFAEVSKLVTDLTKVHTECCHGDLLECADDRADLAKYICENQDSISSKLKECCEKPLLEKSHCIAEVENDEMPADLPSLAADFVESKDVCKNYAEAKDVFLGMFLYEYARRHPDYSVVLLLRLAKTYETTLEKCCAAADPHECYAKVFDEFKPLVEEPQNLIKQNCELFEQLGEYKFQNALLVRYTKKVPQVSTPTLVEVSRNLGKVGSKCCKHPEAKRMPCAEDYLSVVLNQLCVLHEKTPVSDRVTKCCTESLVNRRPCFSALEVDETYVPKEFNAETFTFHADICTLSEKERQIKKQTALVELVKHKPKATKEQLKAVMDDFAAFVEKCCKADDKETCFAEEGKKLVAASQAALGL
assay_notes: Far-UV circular dichroism of HSA, α-helix content
Format: binding
Set-up: unit of the concentration uncertain
condition_parameters: compound concentration 40 (unit uncertain); HSA 20 µM; free HSA 67.03
Description: CD measurements were carried out on a Jasco spectropolarimeter (Model J-815) equipped with a microcomputer. The instrument was calibrated with D-10-camphorsulfonic acid. […] The far-UV CD spectra were measured at a protein concentration of 20 µM at a path length of 1 cm. All the spectra were recorded after equilibration of the reaction mixture for 5 min. […]
Give bare numbers, in %.

Please review the following examples before continuing.
compound | % α-helix of HSA (%)
F[B-](F)(F)F.[Ag+].c1ccc2c(c1)[nH]c1cnccc12.c1ccc2c(c1)[nH]c1cnccc12 [Compound 4, [Ag(Hnor)2](BF4)] | 63.82
CC#N.F[P-](F)(F)(F)(F)F.[Ag+].c1ccc2c(c1)[nH]c1cnccc12.c1ccc2c(c1)[nH]c1cnccc12 [Compound 3, [Ag(Hnor)2(MeCN)](PF6)] | 62.57
[Ag+].[O-][Cl+3]([O-])([O-])[O-].c1ccc2c(c1)[nH]c1cnccc12.c1ccc2c(c1)[nH]c1cnccc12 [Compound 1, [Ag(Hnor)2](ClO4)] | 62.23

For the next question, use this compound.
Request: What value of % α-helix of HSA has been reported for the following compound? O=[N+]([O-])[O-].[Ag+].c1ccc2c(c1)[nH]c1cnccc12.c1ccc2c(c1)[nH]c1cnccc12 [Compound 2, [Ag(Hnor)2](NO3)]
Result: 61.61
